# Test system: SN12C renal
# assayMethodText: NCI tumour cell line growth inhibition, 48 h
Catalogue of molecules with associated TGI
measurementType: TGI

molecule | readoutValue
COc1cccc(NC(=S)Nn2c(C)nc3ccccc3c2=O)c1 | > 100 µM
CSc1nc(-c2cc3c(c(SC)n2)CCCCC3)cc2c1CCCCC2 | > 100 µM
Cc1cc(C)nc(NS(=O)(=O)c2ccc(Nc3c4ccccc4nc4c(C(=O)NCCCN(CCO)CCO)cccc34)cc2)n1 | > 100 µM
CCOC(=O)C(=O)Nc1c(F)cc(F)cc1Br | > 100 µM
CC(C)[C@@]12C[C@@H](OC(=O)[C@H]3CO3)[C@@](C)(O1)[C@@H]1CC[C@@H](C)[C@H]1[C@@H]2OC(=O)/C=C/c1ccccc1 | 41.2 µM
O=S(O)CCCCCSSCCCCSSCCCCCS(=O)O | > 100 µM
Cc1cc2cc3cc(C)c(N(C)C)cc3nc2cc1N(C)C | 29.3 µM
O=C(O)C1C(C(=O)Nc2ccc3c(c2)Cc2ccccc2-3)C2(Cl)C(Cl)=C(Cl)C1(Cl)C2(Cl)Cl (centres undefined) | > 100 µM
COc1ccc(N=C(C)c2ccncc2)cc1 | > 100 µM
CC(C)(C)c1nc2c(o1)C(=O)c1ccccc1C2=O | 2.29 µM
CSc1cnn(CCC#N)c(=O)n1 | > 100 µM
CC(=O)O/N=C/c1ncccc1OC(C)=O | > 100 µM
COc1ccc(N2C(=O)C3ON(C(C(N)=O)c4ccccc4)C(c4ccc(-c5ccccc5)cc4)C3C2=O)cc1 (centres undefined) | > 50 µM
CC(OC(=O)NCn1cc(-c2ccccc2)nn1)c1ccccc1 (centres undefined) | > 100 µM

----------
# System: SF-539 CNS
# assayMethodText: NCI tumour cell line growth inhibition, 48 h
Catalogue of molecules with associated TGI
measurementType: TGI (µM)

molecule | valueOperator | readoutValue
CC1(C)N=C(C(N)=O)c2ncn(-c3ccccc3)c2N1 | > | 100
Cc1cccc2c1Oc1cc(Cl)ccc1C2NC(=O)CCN1CCN(CCO)CC1 (stereo not given) | = | 26
COc1ccc(/C=C2\CCCCC2=O)cc1 | > | 100
CCCCn1c(C)c(C(=O)OCC)s/c1=N/Nc1nc2ccccc2nc1-c1ccccc1 | > | 100
CC1CC[C@@]2(OC1)OC1C[C@H]3[C@@H]4C/C(=N\N(C)C)[C@@]5(O)CC(O)CC[C@]5(C)[C@H]4CC[C@]3(C)C1[C@@H]2C (stereo not given in full) | > | 100
COc1ccc2nc3cccc([N+](=O)[O-])c3c(NCCO)c2c1 | = | 0.052
COc1ccc(C(=O)c2ccc(OC)c(OC)c2OC)cc1 | = | 8.2
COc1cc(CCCOC(=O)/C=C/c2ccc(O)c(O)c2)cc(O)c1O | = | 90.2
Cc1ccc(C2NC(=S)NC3=C2CCOc2c3ccc3ccccc23)cc1 (stereo not given) | > | 100
CC(C)(C)NN=C1C(C)(C)C(=NNC(C)(C)C)C1(C)C | > | 100

----------
# Test system: U251 CNS
# assayMethodText: NCI tumour cell line growth inhibition, 48 h

molecule | TGI
C[C@]12CCC[C@H](Cl)C1(O)C[C@H](C(=O)O)CC2 (stereo partly specified) | > 100 µM
OC12COc3ccccc3C1Oc1ccccc1C2 (stereo unspecified) | > 100 µM
Clc1ccc(SCCSCCCCCCCCCCSCCSc2ccc(Cl)cc2)cc1 | > 100 µM
COC1(OC)CC2C=C(S(=O)(=O)c3ccccc3)C1N(Cc1ccccc1)C2=O (stereo unspecified) | > 100 µM
COc1ccc(C(=O)c2ccc(OC)c(OC)c2OC)cc1 | > 100 µM
COc1ccc(N2C(=O)C3ON(C(C(N)=O)c4ccccc4)C(c4ccc(-c5ccccc5)cc4)C3C2=O)cc1 (stereo unspecified) | > 50 µM

----------
# System: HT29 colon
# assayMethodText: NCI tumour cell line growth inhibition, 48 h
Catalogue of compounds with associated TGI

compound | TGI
NC(=O)N1N=C2c3ccccc3CC[C@@H]2C1c1ccccc1 (stereo partly specified) | > 100 µM
O=C1CCC[C@]2(CCC[C@@H](O)C2)N1 | > 100 µM
COc1ccc2nc3ccc(OC)cc3c(S(=O)(=O)Cc3ccc([N+](=O)[O-])cc3)c2c1 | > 100 µM
Brc1ccc(-c2nnc(-c3nn(-c4ccccc4)c4nc5ccccc5nc34)o2)cc1 | > 100 µM
CC(C)[C@@]12C[C@@H](OC(=O)[C@H]3CO3)[C@@](C)(O1)[C@@H]1CC[C@@H](C)[C@H]1[C@@H]2OC(=O)/C=C/c1ccccc1 | > 100 µM
CC/C=C1\N=C(c2ccc(Cl)cc2)OC1=O | > 100 µM
CCC(C)n1cc(C)c2c(C(=O)NCc3c(C)cc(C)[nH]c3=O)cc(Br)cc21 (stereo unspecified) | > 100 µM
O=c1cc(N2CCOCC2)[nH]c(=O)n1-c1cccc(C(F)(F)F)c1 | > 100 µM
CC(C)C1OC(=O)C=C1Sc1ccccc1 (stereo unspecified) | > 100 µM
CC(OC(=O)NCn1cc(-c2ccccc2)nn1)c1ccccc1 (stereo unspecified) | > 100 µM
CC(=O)Oc1cc(OC(C)=O)c2c(=O)c3ccccc3[nH]c2c1 | > 100 µM
COc1ccc(C2C3C(=O)C=CC(=O)C3[C@@H]2C)cc1OC (stereo partly specified) | > 100 µM
COc1ccc(C2SCC(=O)N2c2ccc(-n3c(-c4ccccc4)nc4ccccc4c3=O)cc2)cc1OC (stereo unspecified) | > 100 µM
COc1ccc(C(O)/C(=N\NC(N)=S)c2nc3ccc([N+](=O)[O-])cc3[nH]c2=O)cc1OC (stereo unspecified) | > 100 µM
CN1C2(c3ccccc3)c3c(-c4ccccc4)sc(-c4ccccc4)c3C1(c1ccccc1)C1C(=O)N(c3ccccc3)C(=O)C12 (stereo unspecified) | > 100 µM
CC1C[C@H](OC(N)=O)C(C)CC1=O (stereo partly specified) | > 100 µM

----------
# Test system: LXFL 529 NSCLC
# assayMethodText: NCI tumour cell line growth inhibition, 48 h
Catalogue of molecules with associated TGI

molecule | valueOperator | TGI / µM
O=C(CO)CC(=O)C(=O)Nc1nc([N+](=O)[O-])cs1 | > | 100
CN(C)c1ccc(/C=C(/NC(=O)c2ccccc2)c2nc3ccc(Cl)cc3[nH]2)cc1 | = | 97.4
CC1C[C@H](OC(N)=O)C(C)CC1=O (stereo partly specified) | > | 100
Brc1ccc(-c2nnc(-c3nn(-c4ccccc4)c4nc5ccccc5nc34)o2)cc1 | > | 100
CC(=O)OC1CC(n2cc(F)c(=O)[nH]c2=O)OC1CO (stereo unspecified) | = | 16.4
CC1=C2C(=O)[C@H]3[C@@H](CC=C4C[C@@H](O)CC[C@@]43C)[C@@H]2CC[C@]12O[C@@H]1C[C@H](C)CN[C@H]1[C@H]2C | = | 33.7

----------
Catalogue of compounds with associated TGI
# System: LOX IMVI melanoma
# assayMethodText: NCI tumour cell line growth inhibition, 48 h
measurementType: TGI

compound | measurementType | readoutValue
Brc1ccc(-c2nnc(-c3nn(-c4ccccc4)c4nc5ccccc5nc34)o2)cc1 | TGI | > 100 µM
COC(=O)C(CCCC1(c2ccccc2)OCCO1)C(C)=O (stereo unspecified) | TGI | > 100 µM
COc1cc(-c2oc3c(OC)c(O)c(OC)c(O)c3c(=O)c2OC)cc(O)c1OC | TGI | > 100 µM
CC/C=C1\N=C(c2ccc(Cl)cc2)OC1=O | TGI | > 100 µM
O=C1C(/C=C/c2ccc(Cl)cc2)=NNC2N1N=C1NC(=O)C3(NN12)c1ccccc1-c1ccccc13 (stereo unspecified) | TGI | > 100 µM
O=S(O)CCCCCSSCCCCSSCCCCCS(=O)O | TGI | > 100 µM
CCCCCC(O)C1C(=O)OC(C)C(O)/C=C/C=C/C=C/C=C\C=C(\C)C(O)CC(O)CC(O)CC(O)CC(O)CC(O)CC1O (stereo unspecified) | TGI | > 100 µM
O=C(CC(=O)N1N=C(N2CCCCC2)CC1c1ccccc1)Nc1ccc(Cl)cc1 (stereo unspecified) | TGI | > 100 µM
CC(C)NC(=O)CN1CCN(C2=CC(=O)c3c(O)ccc(O)c3C2=O)CC1 | TGI | 19.6 µM
COc1ccc(/C(=N/NC(=O)NN)C(c2ccc(OC)cc2)C2(O)CNc3c(Cl)cc(Cl)cc32)cc1 (stereo unspecified) | TGI | > 100 µM
CCCC/C=C/C1Cc2ccccc2CN1S(=O)(=O)c1ccc(C)cc1 (stereo unspecified) | TGI | 22.3 µM
O=C1/C(=C\c2cccc(Oc3ccccc3)c2)S(=O)(=O)C(c2ccccc2)N1c1ccc(Cl)cc1 (stereo unspecified) | TGI | 27.8 µM
CC1=C2C(=O)[C@H]3[C@@H](CC=C4C[C@@H](O)CC[C@@]43C)[C@@H]2CC[C@]12O[C@@H]1C[C@H](C)CN[C@H]1[C@H]2C | TGI | > 58.2 µM
COC1=CC(O)(CC(N)=O)c2ccccc2C1=O (stereo unspecified) | TGI | > 100 µM
O=P(Oc1ccccc1)(Oc1ccccc1)Oc1c[nH]c2ccccc12 | TGI | 49.9 µM
COc1ccc2nc3ccc(OC)cc3c(S(=O)(=O)Cc3ccc([N+](=O)[O-])cc3)c2c1 | TGI | > 100 µM

Data origin: PubChem BioAssay (NCI)
